Molecular target: UniProt P08485
Test: Percent inhibition against muscarinic acetylcholine receptor M4 from NG108-15 cell line
Format: cell-based
Set-up: concentration or dose not given beside the values
Measured Activity accompanies every entry in the list below.
RECORDED_ENDPOINT: Activity (%)

[[record]]
molecule = "CN(CC#CCN1CCCC1)C(=O)CCNC(=O)OC(C)(C)C"
unit_abbrev = "%"
relational_operator = "="
reported_value = 12.5

[[record]]
molecule = "CN(CC#CCN1CCCC1)C(=O)CCCCCNC(=O)c1ccccc1"
unit_abbrev = "%"
relational_operator = "<"
reported_value = 1

[[record]]
molecule = "CN(CC#CCN1CCCC1)C(=O)c1ccccc1"
unit_abbrev = "%"
relational_operator = "<"
reported_value = 1

[[record]]
molecule = "CC(=O)N(C)C(C)C#CCN1CCCC1 (centres undefined)"
unit_abbrev = "%"
relational_operator = "="
reported_value = 36


====

Molecular target: UniProt P20309
Sequence (P20309 whole entry, looked up): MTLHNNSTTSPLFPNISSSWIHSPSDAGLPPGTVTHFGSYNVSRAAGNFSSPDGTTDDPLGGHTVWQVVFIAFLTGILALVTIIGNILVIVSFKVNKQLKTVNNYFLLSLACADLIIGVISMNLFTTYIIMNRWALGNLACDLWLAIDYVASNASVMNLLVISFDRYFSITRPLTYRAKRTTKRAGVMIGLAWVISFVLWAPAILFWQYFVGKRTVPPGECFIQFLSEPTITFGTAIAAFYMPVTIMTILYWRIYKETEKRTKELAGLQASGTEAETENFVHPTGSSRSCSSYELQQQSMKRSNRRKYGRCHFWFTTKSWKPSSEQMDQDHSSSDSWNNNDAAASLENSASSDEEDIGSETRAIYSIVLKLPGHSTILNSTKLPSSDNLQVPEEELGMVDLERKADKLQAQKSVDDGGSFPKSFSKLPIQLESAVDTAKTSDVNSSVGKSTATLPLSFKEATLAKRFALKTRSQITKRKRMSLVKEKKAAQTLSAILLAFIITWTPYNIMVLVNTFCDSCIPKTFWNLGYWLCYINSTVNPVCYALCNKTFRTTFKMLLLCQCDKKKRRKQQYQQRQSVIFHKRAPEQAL
Test: Percent binding affinity at muscarinic acetylcholine receptor M3 from SK-N-SH human neuroblastoma cells in presence of [3H]NMS
Format: cell-based
Measured Affinity accompanies every entry in the list below.
RECORDED_ENDPOINT: Affinity (%)

[[record]]
compound = "CN(CC#CCN1CCCC1)C(=O)CCCCNC(=O)OC(C)(C)C"
recorded_endpoint = "Affinity"
unit_abbrev = "%"
reported_value = 32.1

[[record]]
compound = "CN(CC#CCN1CCCC1)C(=O)CCCCCCCNC(=O)OC(C)(C)C.O=C(O)C(=O)O"
recorded_endpoint = "Affinity"
unit_abbrev = "%"
reported_value = 92.1

[[record]]
compound = "CC(=O)NCCCC(=O)N(C)CC#CCN1CCCC1"
recorded_endpoint = "Affinity"
unit_abbrev = "%"
reported_value = 15.6

[[record]]
compound = "CN(CC#CCN1CCCC1)C(=O)CCN.O=C(O)C(F)(F)F.O=C(O)C(F)(F)F"
recorded_endpoint = "Affinity"
unit_abbrev = "%"
reported_value = 18.1

[[record]]
compound = "CN(CC#CCN1CCCC1)C(=O)CCCCCNC(=O)OC(C)(C)C"
recorded_endpoint = "Affinity"
unit_abbrev = "%"
reported_value = 39.1

[[record]]
compound = "CC(=O)NCC(=O)N(C)CC#CCN1CCCC1"
recorded_endpoint = "Affinity"
unit_abbrev = "%"
reported_value = 12.5

[[record]]
compound = "CN(CC#CCN1CCCC1)C(=O)CCC(=O)NCCN"
recorded_endpoint = "Affinity"
unit_abbrev = "%"
reported_value = 25

[[record]]
compound = "COC(=O)CCC(=O)N(C)CC#CCN1CCCC1"
recorded_endpoint = "Affinity"
unit_abbrev = "%"
reported_value = 28

[[record]]
compound = "CN(CC#CCN1CCCC1)C(=O)CCCNC(=O)CCN"
recorded_endpoint = "Affinity"
unit_abbrev = "%"
reported_value = 40.5

[[record]]
compound = "CN(CC#CCN1CCCC1)C(=O)CCCCCCCN.O=C(O)C(F)(F)F.O=C(O)C(F)(F)F"
recorded_endpoint = "Affinity"
unit_abbrev = "%"
reported_value = 93.7

[[record]]
compound = "CN(CC#CCN1CCCC1)C(=O)CCCCCNC(=O)CN"
recorded_endpoint = "Affinity"
unit_abbrev = "%"
reported_value = 65

[[record]]
compound = "CN(CC#CCN1CCCC1)C(=O)CCCCCNC(=O)c1ccccc1"
recorded_endpoint = "Affinity"
unit_abbrev = "%"
reported_value = 51.7

[[record]]
compound = "CN(CC#CCN1CCCC1)C(=O)CNC(=O)OC(C)(C)C"
recorded_endpoint = "Affinity"
unit_abbrev = "%"
reported_value = 40

[[record]]
compound = "CN(CC#CCN1CCCC1)C(=O)CCCCCCNC(=O)OC(C)(C)C.O=C(O)C(=O)O"
recorded_endpoint = "Affinity"
unit_abbrev = "%"
reported_value = 81.4

[[record]]
compound = "CN(CC#CCN1CCCC1)C(=O)CN"
recorded_endpoint = "Affinity"
unit_abbrev = "%"
reported_value = 17.3

[[record]]
compound = "CC(=O)N(C)C(C)C#CCN1CCCC1 (stereo not drawn)"
recorded_endpoint = "Affinity"
unit_abbrev = "%"
reported_value = 99

[[record]]
compound = "CN(CC#CCN1CCCC1)C(=O)CCCCCNC(=O)CCNC(=O)OC(C)(C)C"
recorded_endpoint = "Affinity"
unit_abbrev = "%"
reported_value = 59.1

[[record]]
compound = "CC(=O)NCCC(=O)N(C)CC#CCN1CCCC1.O=C(O)C(=O)O"
recorded_endpoint = "Affinity"
unit_abbrev = "%"
reported_value = 67.4

[[record]]
compound = "CN(CC#CCN1CCCC1)C(=O)CCCNC(=O)CCNC(=O)OC(C)(C)C"
recorded_endpoint = "Affinity"
unit_abbrev = "%"
reported_value = 39.2

[[record]]
compound = "CN(CC#CCN1CCCC1)C(=O)CCCNC(=O)c1ccccc1"
recorded_endpoint = "Affinity"
unit_abbrev = "%"
reported_value = 30.3

[[record]]
compound = "CN(CC#CCN1CCCC1)C(=O)CCCNC(=O)CNC(=O)OC(C)(C)C"
recorded_endpoint = "Affinity"
unit_abbrev = "%"
reported_value = 37.5

[[record]]
compound = "CN(CC#CCN1CCCC1)C(=O)CCCCCN.O=C(O)C(F)(F)F.O=C(O)C(F)(F)F"
recorded_endpoint = "Affinity"
unit_abbrev = "%"
reported_value = 55.9

[[record]]
compound = "CN(CC#CCN1CCCC1)C(=O)CCCCCNC(=O)CNC(=O)OC(C)(C)C"
recorded_endpoint = "Affinity"
unit_abbrev = "%"
reported_value = 52.6


====

Target: Muscarinic acetylcholine receptor M4 (Rattus norvegicus) (UniProt P08485)
Sequence (P08485 whole entry): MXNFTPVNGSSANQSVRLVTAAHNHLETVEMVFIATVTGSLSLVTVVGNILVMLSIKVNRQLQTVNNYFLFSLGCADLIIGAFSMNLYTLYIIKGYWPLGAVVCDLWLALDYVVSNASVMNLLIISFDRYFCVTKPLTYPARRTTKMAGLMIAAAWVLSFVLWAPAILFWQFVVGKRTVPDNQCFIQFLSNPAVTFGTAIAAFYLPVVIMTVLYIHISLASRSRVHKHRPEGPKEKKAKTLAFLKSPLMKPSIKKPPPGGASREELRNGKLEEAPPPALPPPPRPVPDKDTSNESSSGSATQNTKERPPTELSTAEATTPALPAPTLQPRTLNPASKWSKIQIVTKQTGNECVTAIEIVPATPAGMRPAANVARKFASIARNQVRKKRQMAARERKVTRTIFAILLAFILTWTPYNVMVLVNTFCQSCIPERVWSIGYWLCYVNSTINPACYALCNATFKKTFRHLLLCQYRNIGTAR
Test: Binding affinity at muscarinic acetylcholine receptor M4 from NG108-15 cell line in presence of [3H]-NMS
Assay type: cell-based
RECORDED_ENDPOINT: Affinity (%)

[[record]]
molecule = "CN(CC#CCN1CCCC1)C(=O)CCNC(=O)OC(C)(C)C"
unit_abbrev = "%"
reported_value = 36.3

[[record]]
molecule = "CC(=O)N(C)C(C)C#CCN1CCCC1 (stereo unspecified)"
unit_abbrev = "%"
reported_value = 97

[[record]]
molecule = "CN(CC#CCN1CCCC1)C(=O)CCC(=O)O"
unit_abbrev = "%"
reported_value = 0

[[record]]
molecule = "CN(CC#CCN1CCCC1)C(=O)CCCCCCN.O=C(O)C(F)(F)F.O=C(O)C(F)(F)F"
unit_abbrev = "%"
reported_value = 72.1

[[record]]
molecule = "CN(CC#CCN1CCCC1)C(=O)CCCCCN.O=C(O)C(F)(F)F.O=C(O)C(F)(F)F"
unit_abbrev = "%"
reported_value = 37.9

[[record]]
molecule = "CN(CC#CCN1CCCC1)C(=O)CCCNC(=O)CN"
unit_abbrev = "%"
reported_value = 31


====

Target: Muscarinic acetylcholine receptor M4 (Rattus norvegicus)
Assay: Binding affinity at muscarinic acetylcholine receptor M4 from NG108-15 cell line in presence of [3H]-NMS
Assay type: cell-based
Measured Affinity accompanies every entry in the list below.
RECORDED_ENDPOINT: Affinity (%)

[[record]]
compound_structure = "CN(CC#CCN1CCCC1)C(=O)CCCCCNC(=O)CNC(=O)OC(C)(C)C"
system_tested = "Muscarinic acetylcholine receptor M4 (Rattus norvegicus)"
recorded_endpoint = "Affinity"
reported_value = 52.3

[[record]]
compound_structure = "CN(CC#CCN1CCCC1)C(=O)CNC(=O)OC(C)(C)C"
system_tested = "Muscarinic acetylcholine receptor M4 (Rattus norvegicus)"
recorded_endpoint = "Affinity"
reported_value = 32.6

[[record]]
compound_structure = "CC(=O)N(C)CC#CCN1CCCC1"
system_tested = "Muscarinic acetylcholine receptor M4 (Rattus norvegicus)"
recorded_endpoint = "Affinity"
reported_value = 79.6

[[record]]
compound_structure = "CN(CC#CCN1CCCC1)C(=O)CCCCCNC(=O)OC(C)(C)C"
system_tested = "Muscarinic acetylcholine receptor M4 (Rattus norvegicus)"
recorded_endpoint = "Affinity"
reported_value = 31.9

[[record]]
compound_structure = "CN(CC#CCN1CCCC1)C(=O)CCCNC(=O)OC(C)(C)C"
system_tested = "Muscarinic acetylcholine receptor M4 (Rattus norvegicus)"
recorded_endpoint = "Affinity"
reported_value = 24.4

[[record]]
compound_structure = "CN(CC#CCN1CCCC1)C(=O)CCCCCNC(=O)CCNC(=O)OC(C)(C)C"
system_tested = "Muscarinic acetylcholine receptor M4 (Rattus norvegicus)"
recorded_endpoint = "Affinity"
reported_value = 57.3


====

Target: UniProtKB P08485
Assay: Percent inhibition against muscarinic acetylcholine receptor M4 from NG108-15 cell line
Format: cell-based
Parameters: concentration or dose not given beside the values
RECORDED_ENDPOINT: Activity (%)

[[record]]
compound_structure = "CN(CC#CCN1CCCC1)C(=O)CN"
relational_operator = "="
reported_value = 26.1

[[record]]
compound_structure = "CN(CC#CCN1CCCC1)C(=O)CCCN"
relational_operator = "="
reported_value = 3.7

[[record]]
compound_structure = "CN(CC#CCN1CCCC1)C(=O)CCCNC(=O)CNC(=O)OC(C)(C)C"
relational_operator = "<"
reported_value = 1

[[record]]
compound_structure = "CN(CC#CCN1CCCC1)C(=O)CCCCCNC(=O)CCNC(=O)OC(C)(C)C"
relational_operator = "<"
reported_value = 1

[[record]]
compound_structure = "CN(CC#CCN1CCCC1)C(=O)CCCCNC(=O)OC(C)(C)C"
relational_operator = "="
reported_value = 0.5

[[record]]
compound_structure = "CC(=O)NCCCCCCC(=O)N(C)CC#CCN1CCCC1"
relational_operator = "="
reported_value = 6.9

[[record]]
compound_structure = "CC(=O)NCCC(=O)N(C)CC#CCN1CCCC1.O=C(O)C(=O)O"
relational_operator = "="
reported_value = 10.2

[[record]]
compound_structure = "CN(CC#CCN1CCCC1)C(=O)CCN.O=C(O)C(F)(F)F.O=C(O)C(F)(F)F"
relational_operator = "="
reported_value = 20.8

[[record]]
compound_structure = "CN(CC#CCN1CCCC1)C(=O)CCCCCCN.O=C(O)C(F)(F)F.O=C(O)C(F)(F)F"
relational_operator = "="
reported_value = 3

[[record]]
compound_structure = "CN(CC#CCN1CCCC1)C(=O)CCCCCCCN.O=C(O)C(F)(F)F.O=C(O)C(F)(F)F"
relational_operator = "<"
reported_value = 1

[[record]]
compound_structure = "CN(CC#CCN1CCCC1)C(=O)CCCNC(=O)CCNC(=O)OC(C)(C)C"
relational_operator = "<"
reported_value = 1

